Each entry below carries its reported pIC50.
target: T1, recombinant human PD-L1 (amino acids 19-239 of NP_054862.1) expressed with a C-terminal mouse IgG2a Fc tag (human); test: competition ELISA: 8 nM hPD-L1-mFc binding to coated hB7-1-hFc-6His
T1 construct: called dimeric; also called hPD-L1-mFc
T1 sequence (chain, as listed by the source limits assumed): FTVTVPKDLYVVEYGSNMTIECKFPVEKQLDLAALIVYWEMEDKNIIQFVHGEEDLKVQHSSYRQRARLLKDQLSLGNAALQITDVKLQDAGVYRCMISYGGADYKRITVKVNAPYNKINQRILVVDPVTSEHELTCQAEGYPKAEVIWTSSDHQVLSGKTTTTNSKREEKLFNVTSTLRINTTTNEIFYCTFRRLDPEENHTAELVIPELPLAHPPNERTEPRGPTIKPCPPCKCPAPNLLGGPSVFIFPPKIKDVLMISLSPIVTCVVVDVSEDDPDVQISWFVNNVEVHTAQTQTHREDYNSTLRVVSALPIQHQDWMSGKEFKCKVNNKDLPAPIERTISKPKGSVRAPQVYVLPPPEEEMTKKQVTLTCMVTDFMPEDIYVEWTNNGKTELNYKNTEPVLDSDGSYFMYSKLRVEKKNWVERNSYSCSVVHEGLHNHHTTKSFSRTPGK
Note on pIC50: it is the negative log10 of concentration, concentration in mol/L.

[[record]]
binder = "H1H9329P (antibody, V domains shown, human IgG1 Fc (H1H prefix)) VH: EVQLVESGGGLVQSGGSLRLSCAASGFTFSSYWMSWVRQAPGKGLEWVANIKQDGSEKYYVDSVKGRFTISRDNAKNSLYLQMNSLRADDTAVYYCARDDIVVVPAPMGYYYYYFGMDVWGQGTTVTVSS VL: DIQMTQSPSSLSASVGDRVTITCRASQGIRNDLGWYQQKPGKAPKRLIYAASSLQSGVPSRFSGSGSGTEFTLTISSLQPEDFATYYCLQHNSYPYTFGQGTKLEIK"
observed_result = 8.31


Shifting focus to the binder that follows.
IN: Fill in: pIC50 of H1H9336P (antibody, V domains shown, human IgG1 Fc (H1H prefix)) VH: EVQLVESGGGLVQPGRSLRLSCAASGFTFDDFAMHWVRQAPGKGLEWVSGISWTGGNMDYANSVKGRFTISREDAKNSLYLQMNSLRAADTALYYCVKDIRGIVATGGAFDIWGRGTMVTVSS VL: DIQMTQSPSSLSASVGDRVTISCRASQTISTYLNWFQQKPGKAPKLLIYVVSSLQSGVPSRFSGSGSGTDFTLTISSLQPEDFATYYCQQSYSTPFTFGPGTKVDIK is ___
OUT: 8.36
